Hey, just so you know, these numbers are from the supplement of paper PMC8728848.

Biological target: GlcNAc(b1-4)[GlcNAc(b1-6)]GalNAc
Test: glycan array binding signal (z-score within array); higher = stronger binding
Details: glycan notation: IUPAC condensed, linker removed
This is one part of a sample in which the strongest signals are shown more often than they occur.
In this section, each of the binders is paired with its reported glycan array binding signal (z-score).
property_name: glycan array binding signal (z-score)

[[record]]
binder = "CTLY 1 (Homo sapiens), Q6ZS10 (protein) AITCPEGWLPFEGKCYYFSPSTKSWDEARMFCQENYSHLVIINSFAEHNFVAKAHGSPRVYWLGLNDRAQEGDWRWLDGSPVTLSFWEPEEPNNIHDEDCATMNKGGTWNDLSCYKTTYWICERKGLNDIFEAQKIEWHE"
quantitative_result = 0.086

[[record]]
binder = "cFel (Cyprinus carpio), P68512 (protein) LDCTVIDGNLKQIDAGSGSVVGVNNLNETFVLIDNVFTKISGSLKHFSVGPAGQLGVNTANNIFKYQSGGFVQLAGLLKQVDAGGDQIIAGVNMYDDIYCLNMDANNKWPSSNTPWVQINGKLKYYSCGPYSCWGVNSNDQIFIMKDVSSNVCSGSGSFINIPGLLSMIEVATDGSVFGVNSQGNLYQRTGVTRSKPDGTDWISMVACPNGHKHVSFDLGVLWLVCVDGSIRKCILTD"
quantitative_result = -0.003

[[record]]
binder = "Alpha-agglutinin (Saccharomyces cerevisiae) (protein) MFTFLKIILWLFSLALASAININDITFSNLEITPLTANKQPDQGWTATFDFSIADASSIREGDEFTLSMPHVYRIKLLNSSQTATISLADGTEAFKCYVSQQAAYLYENTTFTCTAQNDLSSYNTIDGSITFSLNFSDGGSSYEYELENAKFFKSGPMLVKLGNQMSDVVNFDPAAFTENVFHSGRSTGYGSFESYHLGMYCPNGYFLGGTEKIDYDSSNNNVDLDCSSVQVYSSNDFNDWWFPQSYNDTNADVTCFGSNLWITLDEKLYDGEMLWVNALQSLPANVNTIDHALEFQYTCLDTIANTTYATQFSTTREFIVYQGR"
quantitative_result = 5.52

[[record]]
binder = "LysMD3 (Homo sapiens), Q7Z3D4 (protein) MAGRHQNRSFPLPGVQSSGQVHAFGNCSDSDILEEDAEVYELRSRGKEKVRRSTSRDRLDDIIVLTKDIQEGDTLNAIALQYCCTVADIKRVNNLISDQDFFALRSIKIPVKKFSSLTETLCPPKGRQTSRHSSVQYSSEQQEILPANDSLAYSDSAGSFLKEVDRDIEQIVKCTDNKRENLNEVVSALTAQQMRFEPDNKNTQRKDPYYGADWGIG"
quantitative_result = 0.46

[[record]]
binder = "HML-Native (Hypnea musciformis), P84871 (protein) QKFCTLDIAPVCCQIVIGGGMYTAGNACMCEGFVSGVGRCENPKECPCTREAQIPSCCSSRWGLVSVTGKCACDCLGGTVAFPEPCPSPY"
quantitative_result = -0.239

[[record]]
binder = "Gal 10 (Homo sapiens), Q05315 (protein) MSLLPVPYTEAASLSTGSTVTIKGRPLVCFLNEPYLQVDFHTEMKEESDIVFHFQVCFGRRVVMNSREYGAWKQQVESKNMPFQDGQEFELSISVLPDKYQVMVNGQSSYTFDHRIKPEAVKMVQVWRDISLTKFNVSYLKR"
quantitative_result = -0.956

